tested on: CAKI-1 renal; assay: NCI tumour cell line growth inhibition, 48 h
measured-parameter: TGI

Known TGI results, listed for orientation:
Query: Sample CCc1nn(CN2CCN(C)CC2)c(=S)n1/N=C\c1ccc(-c2ccc([N+](=O)[O-])cc2)o1 — what was its TGI?
Result: > 100 µM

Query: Entry CC1[C@@H]2[C@@H](C=C3C4CCC5Cc6nc7c(nc6C[C@@]5(C)C4C[C@H](O)[C@]32CO)CC2CCC3C4=C[C@H]5O[C@@]6(O[C@@](C)(CO)C[C@@H]6O)C(C)[C@@]5(O)[C@]4(C)[C@@H](O)CC3[C@]2(C)C7)O[C@]12CCC(C)(C)O2 (some centres undefined) please
Result: > 3.65 µM

Query: Okay, and COC(=O)N1CC2(CO)C3CC=C(C(=O)Nc4ccccc4Br)C2C1C3Br (centres undefined) ?
Result: > 50 µM

Next up:
Query: Tell me the measured TGI of O=C1c2ccccc2C2CNC1(O)c1ccccc12 (centres undefined) , please.
Result: > 100 µM

###

Let's look at some compounds and their measured TGI.
tested on: SN12C renal; assay: NCI tumour cell line growth inhibition, 48 h

Example entries begin here.
Query: What TGI appears in the records for this compound with SN12C renal? C=C(C)[C@@]1(O)O[C@H]2C[C@@]3(C)OC(=CC3=O)/C(C)=C\[C@@H]3OC(=O)[C@@]1(C)[C@H]32
Result: 34.9 µM

Query: Could you do the same for Cc1ccc(S(=O)(=O)c2scc(-c3ccccc3)c2C)cc1 , please?
Result: > 100 µM

Query: # iterate: Cc1ccc(NCCCN2CCN(CCCNc3ccc(C)c4sc5ccccc5c(=O)c34)CC2)c2c(=O)c3ccccc3sc12
Result: > 100 µM

Query: Further, for C=C1C(=O)O[C@H]2[C@H]1CC/C(CNC(=O)/C=C/c1ccc(Br)cc1)=C\CC[C@@]1(C)O[C@@H]21 ?
Result: 3.58 µM

Query: Check OCCOc1ccc(-c2cc(-c3ccccn3)nc(-c3ccccn3)c2)cc1 too.
Result: > 100 µM

More entries:
Query: What measured TGI is associated with O=C(Nc1c(O)[nH]c(=S)[nH]c1=O)c1ccccn1 on SN12C renal?
Result: > 100 µM

Query: Can you handle CN1C/C(=C\c2cccs2)C2=NC(=S)NC(c3cccs3)C2C1 (stereo unspecified) next?
Result: > 100 µM

Query: Same question for Nc1nc2c(=O)c3ccccc3sc2s1 please.
Result: > 100 µM

Query: Another: C=C(C)[C@@H]1CC[C@]2(C(=O)O)CC[C@]3(C)[C@H](CC[C@@H]4[C@@]5(C)CC(=O)C(C)(C)[C@@H]5CC[C@]43C)[C@@H]12
Result: 13.6 µM

Query: Next compound up: COC(=O)c1cn(CCCC(=O)O)nn1
Result: > 100 µM

Query: Subsequent entry: FC(F)(F)C1(Cl)C(c2ccccc2)=C1c1ccccc1
Result: 29.3 µM

Query: One more compound: O=c1[nH]c(=O)n(C2CC(O)C(CO)O2)cc1I (stereo unspecified)
Result: > 100 µM

Query: Now the same for O=C(O)CCCl
Result: > 5000 µM

Query: Subsequent entry: O=P([O-])(O)OP(=O)([O-])O.[NH-][C@H]1CCCC[C@@H]1[NH-].[OH-].[OH-].[Pt+4]
Result: 87.9 µM

Query: Try the compound O=C1Oc2ccccc2C(=O)/C1=C/N1C(=O)N/C(=C\c2ccccc2O)C1=O
Result: > 100 µM

Query: Param item: CCCCCCCCCCCOC(=S)NC(C)C
Result: 30.1 µM

Query: Repeat with CN(C)CCCOc1ccccc1NC1=C(Cl)C(=O)C(Nc2ccccc2OCCCN(C)C)=C(Cl)C1=O
Result: 0.319 µM

Query: Entry CNC(=O)c1ccccc1-[s+]1c2ccccc2c(=O)n1C (stereo unspecified) please
Result: > 100 µM

Query: What about this compound? Cc1ccc(S(=O)(=O)N/N=C/c2oc(-c3cccc([N+](=O)[O-])c3)c(-c3cccc([N+](=O)[O-])c3)c2[N+](=O)[O-])cc1
Result: > 100 µM

Query: Then C1OCC2S[C@@H]3COCO[C@@H]3C2O1 (stereo partly specified) ?
Result: > 100 µM

Query: // next record O=c1c2ccccc2oc2nc3n(c(=O)c12)CCCS3
Result: > 100 µM
